target: ATP-dependent translocase ABCB1 (Homo sapiens); assay: blockers of ABCB1-mediated dye efflux – cell-based, multiplex, flow cytometry, ABCG2 counter-screen, primary screen (AID 1326); conditions: CCRF-Adr cells, JC-1 efflux, at 6.6 µM, hits give high values;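 note: 0% = vehicle and 100% = reference inhibitor; higher value means more JC-1 retained so stronger ABCB1 efflux block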
Among all 190,000 compounds or so, about 130 (0.068%) were called active. Only a selection was taken, and actives are over-represented in it overall.
# reported inhibition; entries follow
Report only the number, with the unit % understood.

Reference set (10 entries):
| compound | quantity | endpoint_result |
| --- | --- | --- |
| O=C(O)CC(SCC(=O)Nc1ccc(Br)cc1)C(=O)O (configuration not stated) | inhibition | -0.05 |
| O=C(NCCc1ccccc1)C1CCC(Cn2c(=O)c3ccccc3n(Cc3cccnc3)c2=O)CC1 (configuration not stated) | inhibition | 4.02 |
| CC1CN(CCCOc2ccccc2-c2ccccc2)CC(C)O1 (configuration not stated) | inhibition | 3.45 |
| C/C(CC1CC(C)(C)OC1=O)=N/Nc1nc(-c2ccccc2)cs1 (configuration not stated) | inhibition | -0.4 |
| CNC(=S)N1CCC(NC(=O)C(Cc2ccc(F)cc2)NC(C)=O)CC1 (configuration not stated) | inhibition | 0.7 |
| COc1ccc(Br)cc1/C=N/Nc1ccc(Cl)c(C(=O)O)c1 | inhibition | -0.4 |
| CC1CCCN(CC(O)COc2ccc3c(c2)OCO3)C1 (configuration not stated) | inhibition | 0.12 |
| Cc1ccccc1CSc1nnc(-c2ccccc2)c(=O)[nH]1 | inhibition | 0.19 |
| Cc1ccc(C(=O)N/C(=C/c2cccnc2)C(=O)O)cc1 | inhibition | 0.02 |
| Cc1ccc(Nc2c(F)c(F)c(F)c(F)c2C(=O)O)c(C)c1 | inhibition | -0.24 |

(Q) So what does the record say about inhibition for O=S(=O)(c1ccccc1)c1nc(-c2ccccc2F)oc1NCc1cccnc1 ?
(A) 5.26

(Q) So what does the record say about inhibition for C=C(C)c1cccc(C(C)(C)NC(=O)NCCN(CC)CC)c1 ?
(A) 0.61

(Q) So what does the record say about inhibition for CC(C)(C)n1ncc2c(=O)n(Cc3ccc(Cl)cc3)cnc21 ?
(A) 0.59

(Q) So what does the record say about inhibition for COc1cc(CNC2CCCC2)c(Br)cc1OCc1ccccc1 ?
(A) 0.98

(Q) So what does the record say about inhibition for CC1=CC(=C(C#N)c2nc3ccccc3s2)C=C(C)N1c1ccc(F)cc1F ?
(A) -0.7

(Q) So what does the record say about inhibition for COc1cc(OC)c(C(=O)N2CCCC2)cc1OC ?
(A) 1.33

(Q) So what does the record say about inhibition for COC(=O)c1ccc(OCC(O)CN(CCO)CC(O)Cn2ccc3ccccc32)cc1 (configuration not stated) ?
(A) 0.69

(Q) So what does the record say about inhibition for COc1cccc(C(O)Cc2nc3ccccc3n2C)c1OC (configuration not stated) ?
(A) -0.47

(Q) So what does the record say about inhibition for C#CCOCCOCCOCCNc1nc(N2CCN(C(=O)[C@H](CCCCN)n3cc([C@@H](N)C(C)CC)nn3)CC2)nc(N2CCN(C(=O)[C@H](Cc3ccc(O)cc3)n3cc([C@@H](N)C(C)CC)nn3)CC2)n1 (some centres not stated) ?
(A) 0.44

(Q) So what does the record say about inhibition for Cc1ccccc1-c1n[nH]c(=S)n1C ?
(A) -0.08

(Q) So what does the record say about inhibition for NS(=O)(=O)c1ccc(CCNC(=O)c2ccc(Cl)cc2[N+](=O)[O-])cc1 ?
(A) 1.3

(Q) So what does the record say about inhibition for Cc1nnc(SCCCCSc2nnc(C)c(=O)[nH]2)[nH]c1=O ?
(A) 1.4

---

# reported inhibition; entries follow
molecular target: ATP-dependent translocase ABCB1 (Homo sapiens) (UniProt P08183); experiment: blockers of ABCB1-mediated dye efflux – cell-based, multiplex, flow cytometry, ABCG2 counter-screen, primary screen (AID 1326); conditions: CCRF-Adr cells, JC-1 efflux, at 6.6 µM, hits give high values;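 note: 0% = vehicle and 100% = reference inhibitor; higher value means more JC-1 retained so stronger ABCB1 efflux block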
Sequence (P08183 whole entry, looked up): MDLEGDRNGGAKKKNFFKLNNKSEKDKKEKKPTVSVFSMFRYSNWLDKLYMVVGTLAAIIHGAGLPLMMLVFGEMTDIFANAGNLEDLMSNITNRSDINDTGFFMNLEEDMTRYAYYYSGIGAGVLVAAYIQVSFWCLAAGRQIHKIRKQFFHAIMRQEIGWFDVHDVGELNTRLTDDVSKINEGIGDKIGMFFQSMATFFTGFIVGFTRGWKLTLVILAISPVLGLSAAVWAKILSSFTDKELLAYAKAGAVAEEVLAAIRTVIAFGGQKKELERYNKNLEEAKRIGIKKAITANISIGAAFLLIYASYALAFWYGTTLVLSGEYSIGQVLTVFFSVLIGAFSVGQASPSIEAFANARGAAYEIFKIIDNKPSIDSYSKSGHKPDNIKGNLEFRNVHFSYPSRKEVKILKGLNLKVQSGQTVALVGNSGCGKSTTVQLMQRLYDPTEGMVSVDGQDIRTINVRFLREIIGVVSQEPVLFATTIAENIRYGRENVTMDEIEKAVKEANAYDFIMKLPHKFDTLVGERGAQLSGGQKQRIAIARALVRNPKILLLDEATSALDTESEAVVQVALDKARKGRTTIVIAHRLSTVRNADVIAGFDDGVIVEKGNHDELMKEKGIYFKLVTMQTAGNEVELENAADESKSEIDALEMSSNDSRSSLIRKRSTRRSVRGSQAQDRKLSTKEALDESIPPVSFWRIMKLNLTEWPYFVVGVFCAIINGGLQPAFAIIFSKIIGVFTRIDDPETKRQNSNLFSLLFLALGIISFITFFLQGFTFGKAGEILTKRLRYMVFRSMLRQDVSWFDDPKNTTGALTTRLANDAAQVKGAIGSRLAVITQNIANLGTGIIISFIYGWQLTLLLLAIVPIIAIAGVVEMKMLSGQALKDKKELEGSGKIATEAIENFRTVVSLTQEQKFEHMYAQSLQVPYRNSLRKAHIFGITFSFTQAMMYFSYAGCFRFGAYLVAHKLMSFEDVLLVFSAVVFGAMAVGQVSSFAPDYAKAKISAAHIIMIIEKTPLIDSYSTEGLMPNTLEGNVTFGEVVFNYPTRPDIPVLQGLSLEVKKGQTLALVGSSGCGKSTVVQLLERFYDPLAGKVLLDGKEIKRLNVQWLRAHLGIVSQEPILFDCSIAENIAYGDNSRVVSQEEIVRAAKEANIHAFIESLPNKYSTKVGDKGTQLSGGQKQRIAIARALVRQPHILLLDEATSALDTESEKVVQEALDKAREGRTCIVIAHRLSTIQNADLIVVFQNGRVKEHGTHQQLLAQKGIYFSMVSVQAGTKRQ
In all, about 190,000 compounds went through this assay and about 130 (0.068%) were called active. The sample as a whole holds a higher share of actives than the screen did.
Report only the number, with the unit % understood.

Reference set (3 entries):
| compound | inhibition / % |
| --- | --- |
| COc1cccc(OC)c1C(=O)OCC(=O)/C(C#N)=C(\C)N | 0.08 |
| CCS(=O)(=O)c1ccc(O)c(NC(=O)COc2ccc(Cl)cc2)c1 | 0.2 |
| COc1ccc(Cl)cc1NC(=O)[C@@H]1CCCN1C(=O)c1cccs1 | 1.1 |

(Q) So what does the record say about inhibition for CCOc1ccc(C(=O)Nc2cccc(SC)c2)cc1 ?
(A) 0.08

(Q) So what does the record say about inhibition for Cc1cc(C)cc(NC(=O)N2CCCCCCC2)c1 ?
(A) 2.76

(Q) So what does the record say about inhibition for COC(=O)c1ccc(C(NC(=O)OCc2ccccc2)/C(C)=C/[C@@H](C)C(=O)NCc2ccc(OC)c(OC)c2)cc1 (stereo not given in full) ?
(A) 9.15

(Q) So what does the record say about inhibition for CC[C@H](C)[C@@H](C(=O)N1CCNCC1)n1cc([C@@H](N)Cc2ccc(O)cc2)nn1 ?
(A) 0.31

---

target: ATP-dependent translocase ABCB1 (Homo sapiens); experiment: blockers of ABCB1-mediated dye efflux – cell-based, multiplex, flow cytometry, ABCG2 counter-screen, primary screen (AID 1326); conditions: CCRF-Adr cells, JC-1 efflux, at 6.6 µM, hits give high values;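 note: 0% = vehicle and 100% = reference inhibitor; higher value means more JC-1 retained so stronger ABCB1 efflux block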
About 130 (0.068%) of roughly 190,000 compounds were called active. What follows is part of a selection rich in actives, with near analogues and random picks from the rest.
quantity: inhibition (%)
Report only the number, with the unit % understood.

| compound | inhibition [%] |
| --- | --- |
| CCOC(=O)C1(C)NC(c2ccco2)C2C(=O)N(c3ccccc3)C(=O)C21 (stereo unspecified) | 0.47 |

(Q) Short answer please: inhibition, ATP-dependent translocase ABCB1 (Homo sapiens), entry Cc1c(C(=O)c2cccc([N+](=O)[O-])c2)c2ccccn2c1CCC#N
(A) 2.01

(Q) Short answer please: inhibition, ATP-dependent translocase ABCB1 (Homo sapiens), entry CC(=O)N(CN1C(=O)C2C3C=CC(C3)C2C1=O)c1cccc(Cl)c1 (stereo unspecified)
(A) 0.48

(Q) Short answer please: inhibition, ATP-dependent translocase ABCB1 (Homo sapiens), entry COc1ccc(-c2[nH]ncc2CN(Cc2nccn2C)C(C)C)cc1F
(A) 2.14

(Q) Short answer please: inhibition, ATP-dependent translocase ABCB1 (Homo sapiens), entry Cc1c(Cl)c([N+](=O)[O-])nn1CC(=O)NCC1CCCO1 (stereo unspecified)
(A) -0.1

(Q) Short answer please: inhibition, ATP-dependent translocase ABCB1 (Homo sapiens), entry CCCCN1C(=S)NC[C@@H]1C(C)CC (stereo partly specified)
(A) 0.02

(Q) Short answer please: inhibition, ATP-dependent translocase ABCB1 (Homo sapiens), entry CCCCC(=O)Nc1ccc(C(=O)Nc2cc(C(F)(F)F)ccc2Cl)cc1
(A) -0.36

(Q) Short answer please: inhibition, ATP-dependent translocase ABCB1 (Homo sapiens), entry Cc1cc(C)cc(NC(=O)COC(=O)c2cc(C)oc2C)c1
(A) 1.39

---

target: ATP-dependent translocase ABCB1 (Homo sapiens); assay: blockers of ABCB1-mediated dye efflux – cell-based, multiplex, flow cytometry, ABCG2 counter-screen, primary screen (AID 1326); conditions: CCRF-Adr cells, JC-1 efflux, at 6.6 µM, hits give high values;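 note: 0% = vehicle and 100% = reference inhibitor; higher value means more JC-1 retained so stronger ABCB1 efflux block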
The whole screen tested about 190,000 compounds, of which about 130 (0.068%) were called active. The full list was thinned out, with actives kept by preference.
quantity: inhibition

Reference set (5 entries):
| compound | tested_system | inhibition |
| --- | --- | --- |
| Cc1ccc(O)c(-c2cc(C(=O)Nc3c(C)n(C)n(-c4ccccc4)c3=O)[nH]n2)c1 | ATP-dependent translocase ABCB1 (Homo sapiens) | 0.33% (inactive) |
| O=C(Oc1c(-c2ccco2)oc2ccccc2c1=O)c1cccnc1 | ATP-dependent translocase ABCB1 (Homo sapiens) | 1.71% (inactive) |
| Cc1ccc(C)c(NC(=O)CCC(=O)N/N=C2/CC(=O)CC(C)(C)C2)c1 | ATP-dependent translocase ABCB1 (Homo sapiens) | 0.24% (inactive) |
| Cc1nnsc1C(=O)Nc1cccc(Cl)c1C | ATP-dependent translocase ABCB1 (Homo sapiens) | 0.41% (inactive) |
| O=C(C1CC1)N1N=C2CCCCC2C1(O)C(F)(F)F (stereo unspecified) | ATP-dependent translocase ABCB1 (Homo sapiens) | 0.21% (inactive) |

(Q) So what does the record say about inhibition for CC1=C(C)CC(C(=O)NC(C)CCc2ccccc2)C(C(=O)O)C1 (stereo unspecified) ?
(A) 0.3% (inactive)

(Q) So what does the record say about inhibition for COc1ccccc1NC(=O)c1cc(Cl)nnc1Cl ?
(A) 1.04% (inactive)

(Q) So what does the record say about inhibition for COC(=O)CC1=NN(c2nc(C)cc(C)n2)C(=O)C1 ?
(A) 3.04% (inactive)

(Q) So what does the record say about inhibition for Cc1c(CCOC(=O)c2cc([N+](=O)[O-])ccc2Cl)sc[n+]1CCCCS(=O)(=O)[O-] ?
(A) 1.17% (inactive)

(Q) So what does the record say about inhibition for CSc1ccc(/C=N/NC(=O)c2cccc(Cl)c2)cc1 ?
(A) -0.32% (inactive)

(Q) So what does the record say about inhibition for CSc1ccccc1NC(=O)Cc1ccc(Br)cc1 ?
(A) 1.94% (inactive)

Data origin, for the record: PubChem BioAssay AID1326
